System: human ACC2 (Homo sapiens (Human), UniProt O00763) | Read-out: IC50
Sequence (O00763 129-2458): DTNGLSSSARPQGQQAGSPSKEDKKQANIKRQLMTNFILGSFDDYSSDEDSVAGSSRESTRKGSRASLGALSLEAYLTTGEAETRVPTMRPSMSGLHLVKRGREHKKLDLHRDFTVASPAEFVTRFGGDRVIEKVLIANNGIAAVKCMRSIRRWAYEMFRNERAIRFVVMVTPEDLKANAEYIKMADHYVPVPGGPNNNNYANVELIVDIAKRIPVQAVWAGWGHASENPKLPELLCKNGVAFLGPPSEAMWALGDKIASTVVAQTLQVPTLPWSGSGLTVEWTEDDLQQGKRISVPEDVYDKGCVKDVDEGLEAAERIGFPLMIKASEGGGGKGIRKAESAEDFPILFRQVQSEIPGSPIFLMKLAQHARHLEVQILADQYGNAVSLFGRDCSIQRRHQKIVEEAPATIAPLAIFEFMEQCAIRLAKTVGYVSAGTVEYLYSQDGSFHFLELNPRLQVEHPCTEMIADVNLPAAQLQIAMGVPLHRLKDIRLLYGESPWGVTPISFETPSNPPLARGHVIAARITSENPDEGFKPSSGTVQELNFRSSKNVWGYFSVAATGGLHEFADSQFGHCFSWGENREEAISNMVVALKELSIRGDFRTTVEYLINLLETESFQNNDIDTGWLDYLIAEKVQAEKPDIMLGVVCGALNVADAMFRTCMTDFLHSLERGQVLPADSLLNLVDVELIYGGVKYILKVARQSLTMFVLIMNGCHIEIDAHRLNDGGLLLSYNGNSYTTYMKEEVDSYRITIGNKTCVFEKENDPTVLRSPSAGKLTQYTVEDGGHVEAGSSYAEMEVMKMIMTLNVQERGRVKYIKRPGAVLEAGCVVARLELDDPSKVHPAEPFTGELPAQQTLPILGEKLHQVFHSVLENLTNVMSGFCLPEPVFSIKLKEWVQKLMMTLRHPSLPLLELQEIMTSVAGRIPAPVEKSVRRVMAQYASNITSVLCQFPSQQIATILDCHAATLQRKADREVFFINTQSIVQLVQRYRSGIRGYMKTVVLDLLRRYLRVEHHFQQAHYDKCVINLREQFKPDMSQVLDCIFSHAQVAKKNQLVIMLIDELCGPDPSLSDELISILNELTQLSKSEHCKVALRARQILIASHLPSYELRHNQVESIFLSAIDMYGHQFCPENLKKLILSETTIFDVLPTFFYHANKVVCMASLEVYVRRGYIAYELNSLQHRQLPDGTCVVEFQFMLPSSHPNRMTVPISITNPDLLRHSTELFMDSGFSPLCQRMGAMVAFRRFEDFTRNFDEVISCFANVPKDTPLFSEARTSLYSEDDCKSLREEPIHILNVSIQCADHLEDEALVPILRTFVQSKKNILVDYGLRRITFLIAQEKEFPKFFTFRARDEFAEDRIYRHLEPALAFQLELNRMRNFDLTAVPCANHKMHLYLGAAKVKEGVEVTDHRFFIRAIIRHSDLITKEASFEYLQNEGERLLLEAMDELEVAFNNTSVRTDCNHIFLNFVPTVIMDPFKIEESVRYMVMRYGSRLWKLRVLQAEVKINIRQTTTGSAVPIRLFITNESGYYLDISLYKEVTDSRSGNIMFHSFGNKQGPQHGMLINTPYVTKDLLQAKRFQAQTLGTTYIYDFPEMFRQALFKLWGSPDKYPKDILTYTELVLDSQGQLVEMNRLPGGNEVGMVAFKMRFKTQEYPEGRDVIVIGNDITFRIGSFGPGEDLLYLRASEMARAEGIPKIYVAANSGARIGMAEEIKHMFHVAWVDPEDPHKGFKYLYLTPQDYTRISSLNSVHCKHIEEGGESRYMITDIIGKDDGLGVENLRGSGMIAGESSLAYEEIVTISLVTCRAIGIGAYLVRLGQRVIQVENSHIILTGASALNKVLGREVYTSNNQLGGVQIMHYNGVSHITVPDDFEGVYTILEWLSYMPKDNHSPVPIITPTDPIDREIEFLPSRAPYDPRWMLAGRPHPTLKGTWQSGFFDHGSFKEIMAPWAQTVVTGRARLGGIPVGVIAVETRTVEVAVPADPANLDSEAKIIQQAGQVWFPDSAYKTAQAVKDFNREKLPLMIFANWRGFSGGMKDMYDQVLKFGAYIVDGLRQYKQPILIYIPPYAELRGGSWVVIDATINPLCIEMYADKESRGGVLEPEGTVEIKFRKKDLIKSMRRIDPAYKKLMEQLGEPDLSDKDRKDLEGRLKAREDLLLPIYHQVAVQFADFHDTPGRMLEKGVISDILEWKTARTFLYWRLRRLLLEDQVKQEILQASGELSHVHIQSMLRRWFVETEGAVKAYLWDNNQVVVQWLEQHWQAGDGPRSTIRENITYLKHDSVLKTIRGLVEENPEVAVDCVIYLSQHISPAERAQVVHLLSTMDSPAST
test-readout: IC50 (nM)

(P) CCNC(=O)N[C@@H](C)c1ccc(OC2CCN(c3ccc(OC(C)C)cc3)C2)cc1 (stereo partly drawn)
(Q) COc1cc(C(=O)N[C@@H](C)c2ccc(O[C@@H]3CCN(c4ccc(OCC5CC5)cc4)C3)cc2)on1
(R) C[C@H](NC(=O)C1(C(=O)N(C)C)CC1)c1ccc(O[C@@H]2CCN(c3ccc(OCC4CC4)cc3)C2)cc1
Lab note: IC50 ranking, ascending, for the listed compounds. The response must list the labels following the requested ordering. P, Q, R
(P: 218 nM, Q: 346 nM, R: 864 nM)

(A) COCCOc1ccc(N2CCC(Oc3ccc([C@H](C)NC(C)=O)cc3)C2)c(F)c1 (stereo partly drawn)
(B) CC(=O)N[C@@H](C)c1ccc(OC2CCN(c3cccc4c3OCCO4)C2)cc1 (stereo partly drawn)
(C) CC(=O)N[C@@H](C)c1ccc(OC2CCN(c3ccc(F)c(Cl)c3)C2)cc1 (stereo partly drawn)
(D) COCCCOc1ccc(N2CC[C@@H](Oc3ccc([C@H](C)NC(C)=O)cc3)C2)cc1
Hey, quick one: sort these by IC50, largest value first please. The response must list the labels following the requested ordering. B, A, D, C
(B: 2960 nM, A: 685 nM, D: 460 nM, C: 300 nM)
